- test_details: NCI Yeast Anticancer Drug Screen. Data for the mlh1 rad18 strain (AID 175)
- conditions: S. cerevisiae mlh1 rad18 strain growth inhibition, hits give high values; at 50.0 µM unless noted
The panel holds about 79,000 compounds, 15% with a hit somewhere; the sample as a whole holds those more often.
measurement_type: growth inhibition (%)
Quick reminder: number only, in %, skip the unit.

{"compound": "CC(NC(=O)CNC(=O)OCc1ccccc1)C(=O)O (stereo unspecified)", "value_observed": -10.1}

The record that follows has no growth inhibition shown yet.
Which growth inhibition is reported for this compound? CC(=O)NC(C)c1ccccc1 (stereo unspecified)
3.3

---

- test_details: NCI Yeast Anticancer Drug Screen. Data for the bub3 strain (AID 167)
- conditions: S. cerevisiae bub3 mutant strain, at 5.0 µM (retest, dose inferred, filed as 0.5), hits give high values
About 79,000 compounds went through this panel and 15% of them were active in at least one assay; those are over-represented in the sample as a whole.
measurement_type: growth inhibition (%)
Quick reminder: number only, in %, skip the unit.

These solved cases illustrate the format of a correct answer.
{"molecule": "Fc1ccc([I+]c2ccc(F)cc2)cc1", "measurement_type": "growth inhibition", "units_label": "%", "value_observed": 33}
{"molecule": "CC(=O)OC(C)C(=O)NCC(C)O (stereo not drawn)", "measurement_type": "growth inhibition", "units_label": "%", "value_observed": 5}
{"molecule": "N#CC(C#N)N=Nc1ccc(Cl)cc1", "measurement_type": "growth inhibition", "units_label": "%", "value_observed": 9}
{"molecule": "CC(O)C(=O)NC1CCCCC1 (stereo not drawn)", "measurement_type": "growth inhibition", "units_label": "%", "value_observed": 2}
{"molecule": "CCCCOC(=O)/C=C\\C(=O)NC(N)=O", "measurement_type": "growth inhibition", "units_label": "%", "value_observed": 0}
{"molecule": "CCCCCCCCCCNC(=O)CI", "measurement_type": "growth inhibition", "units_label": "%", "value_observed": 14}
{"molecule": "CN(C)c1ccc(/C=C\\C(=O)c2ccccc2)cc1", "measurement_type": "growth inhibition", "units_label": "%", "value_observed": 8}
{"molecule": "C/C(CC(C)C(=O)O)=N/NC(N)=O (stereo not drawn)", "measurement_type": "growth inhibition", "units_label": "%", "value_observed": -1}

Which growth inhibition is reported for this molecule? NN1CCOC(c2ccccc2)C1 (stereo not drawn)
34

Which growth inhibition is reported for this molecule? N#CC(c1ccccc1)c1cccc2ccccc12 (stereo not drawn)
7

Which growth inhibition is reported for this molecule? CC(C)C(C)(C)c1ccc(O)cc1
2

Which growth inhibition is reported for this molecule? N#CC(C#N)N=Nc1cc(Cl)ccc1Cl
15

Which growth inhibition is reported for this molecule? O=C(Cc1ccccc1)c1ccc(O)c(Cl)c1
7

---

- test_details: NCI Yeast Anticancer Drug Screen. Data for the cln2 rad14 strain (AID 165);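 also: 0% = growth equal to vehicle treated cultures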
- conditions: S. cerevisiae cln2 rad14 strain, hits give high values; at 50.0 µM unless noted
The panel holds about 79,000 compounds, 15% with a hit somewhere; the sample as a whole holds those more often.
Parameter: growth inhibition. Scope: all listed entries.
Quick reminder: number only, in %, skip the unit.

These solved cases illustrate the format of a correct answer.
{"compound": "CC(=O)NCCc1ccccc1", "growth inhibition (%)": -19.3}
{"compound": "Cn1c(=O)[nH]c(=O)c2nc(-c3ccccc3)cnc21", "growth inhibition (%)": -13.6}
{"compound": "COC(=O)c1ccc(-n2cc(C(=O)OC)c([N+]#N)c2[O-])cc1", "growth inhibition (%)": -13.6}

Which growth inhibition is reported for this compound? Cc1cc[n+](CCC(N)=O)cc1
1.85

Which growth inhibition is reported for this compound? O=C1c2ccccc2C(=O)N1CN1C(=O)c2ccccc2S1(=O)=O
24.2

Which growth inhibition is reported for this compound? Nc1nc2cc3nc(N)c(N)nc3cc2nc1N
34.9

Which growth inhibition is reported for this compound? O=c1[nH]c(=O)n(C2CC(O)C(CO)O2)cc1OCCCc1ccccc1 (stereo not drawn)
13.8

Which growth inhibition is reported for this compound? Cc1cc(Cl)cc2c1OC(C)OC2=O (stereo not drawn)
-5.6

Which growth inhibition is reported for this compound? O=C(O)c1cc([N+](=O)[O-])c(O)c2ccccc12
-22.1

Which growth inhibition is reported for this compound? Cc1cc([N+](=O)[O-])cc(Br)c1N
3.25

Which growth inhibition is reported for this compound? NCc1ccc(F)cc1
12.7

Which growth inhibition is reported for this compound? O=C(CCCCl)N1CCCCCC1
-37

Which growth inhibition is reported for this compound? Cc1c(C(=O)C/C(=N/NC(=O)C[n+]2ccccc2)C(=O)Nc2ccccc2)[n+](=O)c2ccccc2n1O
-0.7
